Subject of test: Retinoic acid receptor RXR-gamma (Homo sapiens, UniProt P48443)
Sequence (P48443 whole entry, the tested form may be a part): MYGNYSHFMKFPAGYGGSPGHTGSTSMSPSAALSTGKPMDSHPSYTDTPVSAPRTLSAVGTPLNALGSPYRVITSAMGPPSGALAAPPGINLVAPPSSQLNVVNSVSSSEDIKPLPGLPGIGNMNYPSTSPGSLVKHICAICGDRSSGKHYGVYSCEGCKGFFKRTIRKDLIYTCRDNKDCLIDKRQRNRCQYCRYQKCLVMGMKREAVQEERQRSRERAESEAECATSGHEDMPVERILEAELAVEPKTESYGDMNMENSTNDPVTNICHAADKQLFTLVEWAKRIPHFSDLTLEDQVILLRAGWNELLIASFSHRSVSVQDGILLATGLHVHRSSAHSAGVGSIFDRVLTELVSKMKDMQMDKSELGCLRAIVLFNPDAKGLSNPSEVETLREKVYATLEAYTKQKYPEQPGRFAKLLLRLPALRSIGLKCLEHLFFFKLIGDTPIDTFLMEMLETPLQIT
Protocol summary: Agonist activity at human GAL4-fused RXRgamma LBD expressed in human HEK293T cells cotransfected with pFR-Luc and pRL-SV40 assessed as increase in luciferase activity incubated for 16 hrs by Dual-Glo luciferase assay
pEC50: −log10 of the molar value.

| Compound structure string | Subject of test | pEC50 |
| --- | --- | --- |
| O=C(O)CCc1ccc(COc2cccc3c2CCC3)cc1F | Retinoic acid receptor RXR-gamma (Homo sapiens, UniProt P48443) | 4.96 |
| Cc1ccc(OCc2ccc(C(=O)O)c(F)c2)c2c1CCC2 | Retinoic acid receptor RXR-gamma (Homo sapiens, UniProt P48443) | 4.96 |
| O=C(O)c1ccc(CNc2cccc3c2CCC3)cc1 | Retinoic acid receptor RXR-gamma (Homo sapiens, UniProt P48443) | 4.89 |
| Cc1ccc(OCc2ccc(CCC(=O)O)c(Cl)c2)c2c1CCC2 | Retinoic acid receptor RXR-gamma (Homo sapiens, UniProt P48443) | 4.97 |
